Molecular target: 5-HT1A receptor (Homo sapiens, UniProt P08908)
Sequence (P08908 whole entry): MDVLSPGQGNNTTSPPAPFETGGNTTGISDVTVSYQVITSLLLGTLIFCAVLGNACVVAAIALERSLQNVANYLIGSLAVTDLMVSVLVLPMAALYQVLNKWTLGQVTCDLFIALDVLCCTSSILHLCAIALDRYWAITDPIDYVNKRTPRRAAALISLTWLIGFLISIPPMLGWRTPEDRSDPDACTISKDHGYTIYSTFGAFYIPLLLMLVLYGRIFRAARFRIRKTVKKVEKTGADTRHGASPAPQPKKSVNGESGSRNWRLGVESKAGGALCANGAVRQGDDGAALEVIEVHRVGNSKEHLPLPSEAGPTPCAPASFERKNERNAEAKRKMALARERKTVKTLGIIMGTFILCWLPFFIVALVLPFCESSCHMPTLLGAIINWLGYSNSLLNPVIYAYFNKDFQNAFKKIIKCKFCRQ
Assay: 5-HT1A receptor affinity: displacement of [3H] 8-OH-DPAT
Format: binding
Set-up: expressed in transfected cells
Conditions: displacement of [3H] 8-OH-DPAT; CHO cells stably transfected with human 5-HT1A receptors; read-out: 5-HT1A Receptor Affinity Ki
pKi: −log10 of the molar value.
Outcome: t for pKi of at least 8; f for anything lower.

compound | targetUnderTest | classification
COc1cccc2c(CCCCN(C3CCC3)C3COc4c(F)ccc(C(N)=O)c4C3)coc12 (centres unmarked) | 5-HT1A receptor (Homo sapiens, UniProt P08908) | t
NC(=O)c1ccc(F)c2c1C[C@@H](NCC1CCc3[nH]c4ccc(F)cc4c3C1)CO2 (single isomer, unassigned; (+)) [Compound 175b] | 5-HT1A receptor (Homo sapiens, UniProt P08908) | f
CCN(CCCCc1coc2c(OC)cccc12)C1COc2c(F)ccc(C(N)=O)c2C1 (centres unmarked) | 5-HT1A receptor (Homo sapiens, UniProt P08908) | t
CCCN(CCCc1c[nH]c2ccc(OC)cc12)C1COc2c(F)ccc(C(N)=O)c2C1 (centres unmarked) | 5-HT1A receptor (Homo sapiens, UniProt P08908) | t
COc1ccc2[nH]cc(CCCN(C3CCC3)C3COc4c(F)ccc(C(N)=O)c4C3)c2c1 (centres unmarked) | 5-HT1A receptor (Homo sapiens, UniProt P08908) | t
O=C(NC1CC1)c1ccc(F)c2c1CC(N(CCCc1c[nH]c3ccc(F)cc13)C1CCC1)CO2 (centres unmarked) | 5-HT1A receptor (Homo sapiens, UniProt P08908) | f
NC(=O)c1ccc(F)c2c1CC(N(CCC(=O)c1c[nH]c3ccc(F)cc13)C1CCC1)CO2 (centres unmarked) | 5-HT1A receptor (Homo sapiens, UniProt P08908) | f
NC(=O)c1ccc(F)c2c1CC(N(CC1CCc3[nH]c4ccc(F)cc4c3C1)C1CCC1)CO2 (single isomer, unassigned; (+)) [Compound 174c] | 5-HT1A receptor (Homo sapiens, UniProt P08908) | f
NC(=O)c1ccc(F)c2c1C[C@@H](N(CCCCc1c[nH]c3ccc(F)cc13)C1CCC1)CO2 [Compound 83a] | 5-HT1A receptor (Homo sapiens, UniProt P08908) | t
NC(=O)c1cccc2c1C[C@@H](NCCCc1c[nH]c3ccc(F)cc13)CO2 [Compound 133b] | 5-HT1A receptor (Homo sapiens, UniProt P08908) | f
CCCN(CCCc1c[nH]c2ccc(F)cc12)C1COc2cccc(C(N)=O)c2C1 (centres unmarked) | 5-HT1A receptor (Homo sapiens, UniProt P08908) | t
COc1cccc2c1CC(N(CCCc1c[nH]c3ccccc13)CC1CC1)CO2 (centres unmarked) | 5-HT1A receptor (Homo sapiens, UniProt P08908) | t
CCCN(C(C)CCc1c[nH]c2ccc(C#N)cc12)C1COc2c(F)ccc(C(N)=O)c2C1 (single isomer, unassigned) [Compound 13b] | 5-HT1A receptor (Homo sapiens, UniProt P08908) | f
CCCN(C(C)CCc1c[nH]c2ccc(C#N)cc12)C1COc2c(F)ccc(C(N)=O)c2C1 (single isomer, unassigned) [Compound 13a] | 5-HT1A receptor (Homo sapiens, UniProt P08908) | f
CCN(CCCCc1coc2ccccc12)C1COc2cccc(OC)c2C1 (centres unmarked) | 5-HT1A receptor (Homo sapiens, UniProt P08908) | t
COc1cccc2c1CC(N(CCCc1c[nH]c3ccc(F)cc13)CC1CC1)CO2 (centres unmarked) | 5-HT1A receptor (Homo sapiens, UniProt P08908) | t
C[C@@H](CCN(C1CCC1)[C@H]1COc2c(F)ccc(C(N)=O)c2C1)c1c[nH]c2ccc(F)cc12 [Compound 153a] | 5-HT1A receptor (Homo sapiens, UniProt P08908) | f
CCCN(CC1CCc2[nH]c3ccc(F)cc3c2C1)[C@H]1COc2c(F)ccc(C(N)=O)c2C1 (single isomer, unassigned; (-)) [Compound 177a] | 5-HT1A receptor (Homo sapiens, UniProt P08908) | f
CCN(CCCCc1c[nH]c2ccc(F)cc12)C1COc2cccc(OC)c2C1 (centres unmarked) | 5-HT1A receptor (Homo sapiens, UniProt P08908) | t
CCCN(CCCCc1c[nH]c2ccc(F)cc12)C1COc2cccc(OC)c2C1 (centres unmarked) | 5-HT1A receptor (Homo sapiens, UniProt P08908) | t
